Data origin: ChEMBL document CHEMBL1138219

# measurement description: Cytotoxicity against human SF539 cell line
# Format: cell-based
# test conditions: SF-539 cells
Would you mind sorting the entries by GI50 according to these classes? A (below 1000 nM), B (1000 nM to below 10000 nM), C (10000 nM or more)

>>> classification("COc1cc2c(cc1OC)-c1c(c3ccc([N+](=O)[O-])cc3c(=O)n1CCCN=[N+]=[N-])C2=O")
"C"
>>> classification("COc1ccc2c(c1OC)-c1c(c3ccc([N+](=O)[O-])cc3c(=O)n1CCCN=[N+]=[N-])C2=O")
"B"
>>> classification("COc1cc2c(c(OC)c1OC)-c1c(c3ccc([N+](=O)[O-])cc3c(=O)n1CCCBr)C2=O")
"B"
>>> classification("COc1cc2c(c(OC)c1OC)-c1c(c3ccc([N+](=O)[O-])cc3c(=O)n1CCCN=[N+]=[N-])C2=O")
"C"
>>> classification("COc1cc2c(c(OC)c1OC)C(=O)c1c-2n(CCCN)c(=O)c2cc([N+](=O)[O-])ccc12")
"B"
>>> classification("COc1ccc2c(c1)C(=O)c1c-2n(CCCN)c(=O)c2cc([N+](=O)[O-])ccc12")
"A"
>>> classification("COc1cc2c(cc1OC)-c1c(c3ccc([N+](=O)[O-])cc3c(=O)n1CCCBr)C2=O")
"C"
>>> classification("NCCCn1c2c(c3ccc([N+](=O)[O-])cc3c1=O)C(=O)c1cc3c(cc1-2)OCO3")
"A"
>>> classification("COc1cc2c(c(OC)c1OC)C(=O)c1c-2n(CCCN=[N+]=[N-])c(=O)c2cc([N+](=O)[O-])ccc12")
"C"
>>> classification("COc1ccc2c(c1OC)-c1c(c3ccc([N+](=O)[O-])cc3c(=O)n1CCCN)C2=O")
"B"
>>> classification("COc1cc2c(c(OC)c1OC)-c1c(c3ccc([N+](=O)[O-])cc3c(=O)n1CCCN)C2=O")
"B"
>>> classification("COc1ccc2c(c1)C(=O)c1c-2n(CCCCl)c(=O)c2cc([N+](=O)[O-])ccc12")
"A"
>>> classification("COc1cc2c(c(OC)c1OC)C(=O)[C@@H]1c3ccc([N+](=O)[O-])cc3C(=O)N(CCCBr)[C@H]21 (relative stereo)")
"A"
>>> classification("COc1cc2c(cc1OC)-c1c(c3ccc([N+](=O)[O-])cc3c(=O)n1CCCN)C2=O")
"A"
>>> classification("COc1ccc2c(c1)C(=O)c1c-2n(CCCN=[N+]=[N-])c(=O)c2cc([N+](=O)[O-])ccc12")
"A"
>>> classification("COc1cc2c(cc1OC)[C@@H]1[C@H](C2=O)c2ccc([N+](=O)[O-])cc2C(=O)N1CCCBr (relative stereo)")
"C"

---

Quick reference for GI50 among some molecules
# measurement description: Cytotoxicity against human MDA-MB-435 cell line
# Format: cell-based
# test conditions: MDA-MB-435 cells
measured endpoint: GI50 (µM)

>>> reported_result("COc1cccc2c1-c1c(c3ccc([N+](=O)[O-])cc3c(=O)n1CCCCl)C2=O")
50.1
>>> reported_result("COc1cc2c(c(OC)c1OC)-c1c(c3ccc([N+](=O)[O-])cc3c(=O)n1CCCN)C2=O")
0.871
>>> reported_result("COc1cc2c(cc1OC)-c1c(c3ccc([N+](=O)[O-])cc3c(=O)n1CCCN)C2=O")
6.46
>>> reported_result("COc1cc2c(cc1OC)[C@@H]1[C@H](C2=O)c2ccc([N+](=O)[O-])cc2C(=O)N1CCCBr (relative stereo)")
2.82
>>> reported_result("COc1ccc2c(c1)C(=O)c1c-2n(CCCN=[N+]=[N-])c(=O)c2cc([N+](=O)[O-])ccc12")
0.251
>>> reported_result("COc1ccc2c(c1OC)-c1c(c3ccc([N+](=O)[O-])cc3c(=O)n1CCCN)C2=O")
9.12
>>> reported_result("COc1ccc2c(c1)C(=O)c1c-2n(CCCCl)c(=O)c2cc([N+](=O)[O-])ccc12")
3.24
>>> reported_result("COc1cc2c(cc1OC)-c1c(c3ccc([N+](=O)[O-])cc3c(=O)n1CCCBr)C2=O")
25.1
>>> reported_result("COc1cc2c(c(OC)c1OC)C(=O)c1c-2n(CCCN)c(=O)c2cc([N+](=O)[O-])ccc12")
1.07
>>> reported_result("NCCCn1c2c(c3ccc([N+](=O)[O-])cc3c1=O)C(=O)c1cc3c(cc1-2)OCO3")
0.025
>>> reported_result("COc1ccc2c(c1OC)-c1c(c3ccc([N+](=O)[O-])cc3c(=O)n1CCCN=[N+]=[N-])C2=O")
72.4
